- Test system: BT-549
- Assay Notes: NCI tumour cell line growth inhibition, 48 h
The source made the active and inactive calls. Rule as the data show it: active = GI50 up to about 1.1 µM and inactive = higher.

- Compound: "CC1=NN(c2nc(N)nc(CSc3nc4n(c(=S)n3)CCN4)n2)C(C)(C)C1"
  GI50: "> 100 µM (inactive)"
- Compound: "COc1cc(/C=C2/CCS(=O)(=O)c3ccc(C)cc3C2=O)cc(OC)c1OC"
  GI50: "3.52 µM (inactive)"
- Compound: "C/C(=N\\NC(N)=S)c1cccs1.OB(O)c1ccccc1"
  GI50: "> 100 µM (inactive)"
- Compound: "Cc1nnc2cc(C(=O)O)c3ccccc3n2c1=O"
  GI50: "> 10 µM (inactive)"
- Compound: "C/C(=N\\NC(=S)NCc1ccccc1)c1nc2cccnc2[nH]1"
  GI50: "6.12 µM (inactive)"
- Compound: "Sc1nn2c(COc3cc(Cl)c(OCc4nnc5sc(S)nn45)cc3Cl)nnc2s1"
  GI50: "32.7 µM (inactive)"
- Compound: "O=C(N/N=C\\c1ccc(Cl)cc1)Nc1ccc2ccccc2c1"
  GI50: "56.6 µM (inactive)"
- Compound: "CC1NC(C(=O)O)Cc2cc(O)c(O)cc21 (centres undefined)"
  GI50: "> 100 µM (inactive)"
- Compound: "CN(CCC(=O)N1CC(CCl)c2ccc([N+](=O)[O-])cc21)CCC(=O)N1CC(CCl)c2ccc([N+](=O)[O-])cc21 (centres undefined)"
  GI50: "23.6 µM (inactive)"
- Compound: "CC(=O)/C(C)=N/NC(=O)c1ccccc1O"
  GI50: "> 100 µM (inactive)"
- Compound: "CCOC(=O)c1cc(C)nc2c1c(=O)n(-c1ccccc1)c(=O)n2CCCCN1CCN(c2ncccn2)CC1"
  GI50: "45.1 µM (inactive)"
- Compound: "O=C(NC(Cc1c[nH]cn1)C(=O)N1CCCC1)C1CCCC1 (centres undefined)"
  GI50: "> 100 µM (inactive)"
- Compound: "CC(C)(C)C1=CC(O)(c2c3ccccc3c(C3(O)C=C(C(C)(C)C)C(=O)C(C(C)(C)C)=C3)c3ccccc23)C=C(C(C)(C)C)C1=O"
  GI50: "> 100 µM (inactive)"
- Compound: "N=C(N)NCCCC(NC(=O)OCCCCn1ccc(N)nc1=O)C(=O)O (centres undefined)"
  GI50: "> 100 µM (inactive)"

###

- Tested on: 786-0
- Assay Notes: NCI tumour cell line growth inhibition, 48 h
Activity calls are given as the source filed them. No stated cut-off is given here; in the data, active = GI50 up to about 1.1 µM and inactive = higher.
# GI50 listing for each entry below

- Compound: "N#CC(NC12CC3CC(CC(C3)C1)C2)c1ccccc1 (centres undefined)"
  GI50: "> 100 µM (inactive)"
- Compound: "COC1=CC(C)C2C[C@H]3O[C@H](O)C[C@H]4C(C)C(=O)C(O)C([C@@]2(C)C1=O)[C@@]34C (some centres undefined)"
  GI50: "> 100 µM (inactive)"
- Compound: "COc1ccc2oc(-c3cc4cc(OC)ccc4o3)cc2c1"
  GI50: "> 100 µM (inactive)"
- Compound: "CC1CCCc2c1c1ccc3c(O)cccc3c1oc2=O (centres undefined)"
  GI50: "19.5 µM (inactive)"
- Compound: "C[N+](C)(C)CC(=O)N/N=C(/CC(=O)CC(C1=C(O)c2ccccc2OC1)c1ccccc1)C(=O)Nc1cccc(Cl)c1 (centres undefined)"
  GI50: "> 100 µM (inactive)"
- Compound: "Cc1cc2c(=O)cc(-c3ccc(C(=O)O)cc3)oc2c(C(N)=O)c1C"
  GI50: "> 100 µM (inactive)"
- Compound: "N#CC(C#N)=C1NN=C(Cl)c2ccccc21"
  GI50: "> 100 µM (inactive)"
- Compound: "COc1ccc(/C=[N+](\\[O-])[C@H](COCc2ccccc2)c2ccccc2)cc1"
  GI50: "> 100 µM (inactive)"
- Compound: "O=c1c2cccnc2n2n1Cc1ccccc1C2"
  GI50: "> 100 µM (inactive)"
- Compound: "COc1ccc(-c2cc(=O)c3ccccc3o2)cc1N"
  GI50: "> 100 µM (inactive)"
- Compound: "CC1(C)COC(C2(C)C(=O)C=C(c3ccccc3)c3ccccc32)=N1 (centres undefined)"
  GI50: "59.8 µM (inactive)"
- Compound: "Cc1ccc2c(C3Cc4ccccc4N3C(=O)/C=C\\C(=O)O)c(C)[nH]c2c1 (centres undefined)"
  GI50: "47.9 µM (inactive)"
- Compound: "O=C1c2ccc3c4ccc5c6c(ccc(c7ccc(c2c37)C(=O)N1CCN1CCCCC1)c64)C(=O)N(CCN1CCCCC1)C5=O"
  GI50: "> 100 µM (inactive)"
- Compound: "CCN(CC)C1=Nc2ccccc2-n2c(C)cnc2C1"
  GI50: "> 100 µM (inactive)"
- Compound: "N#C/C(=C\\c1ccc(Br)cc1)c1nc(-c2cc3ccccc3oc2=O)cs1"
  GI50: "17 µM (inactive)"
- Compound: "Cc1cc(Cl)ccc1N1C(=O)C(=O)C(c2nc3ccccc3o2)C(=O)C1=O"
  GI50: "> 100 µM (inactive)"
- Compound: "CC1(C)CC(=O)c2c(nc3ccc4ccccc4c3c2-c2ccc(NC(=O)CCC(=O)Nc3ccc(-c4c5c(nc6ccc7ccccc7c46)CC(C)(C)CC5=O)cc3)cc2)C1"
  GI50: "> 100 µM (inactive)"
- Compound: "OC1CCC(C2C3CCCCC3C3CCCCC3C2C2CCC(O)CC2)CC1 (centres undefined)"
  GI50: "4.16 µM (inactive)"
- Compound: "CN1OC2OC(=O)OC2[C@H]1[C@H]1O[C@H](c2ccccc2)OC1(C)c1cc(OC(=O)c2ccccc2)ccc1OC(=O)c1ccccc1 (some centres undefined)"
  GI50: "> 50 µM (inactive)"
